# System: BTK (Homo sapiens)
# Sequence (Q06187 402-655 limits assumed): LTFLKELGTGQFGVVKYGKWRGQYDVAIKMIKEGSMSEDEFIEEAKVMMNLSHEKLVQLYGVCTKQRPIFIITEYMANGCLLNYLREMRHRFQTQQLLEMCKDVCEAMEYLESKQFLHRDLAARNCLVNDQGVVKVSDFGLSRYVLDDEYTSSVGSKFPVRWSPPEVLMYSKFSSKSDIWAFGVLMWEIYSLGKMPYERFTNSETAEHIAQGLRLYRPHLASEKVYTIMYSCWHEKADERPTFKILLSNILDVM
# Assay info: biochemical
# Applied conditions: read-out: BTK inhibition (%), 0.75 uM BTK, […] probe 3l, 15 min preincubation
Let's look at some molecules and their measured inhibition at 10 µM.
Measured parameter: inhibition at 10 µM (%)

>>> assay_value("CN(C)CCCCC(=O)Nc1ccc(NC(=S)NC(=O)c2ccc(C(C)(C)C)cc2)cc1 [PCM-0214793]")
7
>>> assay_value("CC(=O)O[C@H]1CC[C@H]2[C@@H]3CCc4cc(O)ccc4[C@H]3CC[C@]12C [PCM-0216021]")
3.1
>>> assay_value("O=C(O)CCCc1ccccc1 [PCM-0095550]")
-12.4
>>> assay_value("N[C@@H](CC(=O)N1CCn2c(nnc2C(F)(F)F)C1)Cc1cc(F)c(F)cc1F [PCM-0214812]")
-1.6
>>> assay_value("Cn1c2ccccc2c2c3c(c4c5ccccc5n(CCC#N)c4c21)CNC3=O [PCM-0215344]")
5.5
>>> assay_value("CC(=O)[C@H]1CC[C@H]2[C@@H]3CCC4=CC(=O)CC[C@]4(C)[C@H]3CC[C@]12C [PCM-0064761]")
-7.8

Numbers sourced from paper PMC8041284.
